- System: HCK;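 further: KINOMEscan kinase panel screen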
- condition_details: concentration: 1 μM, replicates: in singlicate; n = 1
measure: %Inh (%)

INSERT INTO assay_data (molecule, display_unit, val) VALUES
  ('COc1cc2nccc(Nc3ccc(NC(=O)c4ccc(C)cc4)c(O)c3)c2cc1OC.Cl', '%', 0),
  ('COC(=O)c1c(-c2ccccc2)c2cc(C(=O)O)ccc2c(=O)n1Cc1ccccc1', '%', 0),
  ('COc1ccc2nc(-c3cccc(C)n3)nc(Nc3ccncc3)c2c1', '%', 0),
  ('Cc1cccc(-c2nc(Nc3ccc4[nH]ncc4c3)c3ccccc3n2)n1', '%', 0),
  ('COc1ccc(CNC(=O)NC2CCN(c3ccnc(Nc4cc(OC)c(OC)c(OC)c4)n3)C2)cc1 (stereo not shown)', '%', 0),
  ('COc1cccc(-c2cc(-c3c[nH]nc3-c3ccccn3)ccn2)c1', '%', 0),
  ('Cn1ccc2ncnc(Oc3ccc(Nc4nc5ccccc5[nH]4)cc3)c21', '%', 8),
  ('Cc1cccc(-c2nc(Nc3ccncc3)c3ccccc3n2)n1', '%', 11),
  ('Cc1ccc(NC(=O)Nc2cc(C(C)(C)C)nn2-c2ccccc2)cc1', '%', 0),
  ('Fc1cc(Cl)ccc1Nc1ccnc2cc(I)ccc12', '%', 0),
  ('CN(C)CCN(C)C(=O)c1cc(-c2ccncc2)c(-c2ccc(Cl)c(O)c2)o1.Cl.Cl', '%', 14),
  ('Cn1ccc2ncnc(Oc3ccc(NC(=O)Nc4ccccc4)cc3)c21', '%', 0),
  ('Nc1nc(-c2nccs2)c(-c2ccnc3ccccc23)s1', '%', 0),
  ('Cc1ccc(-c2cc(-c3c[nH]nc3-c3ccccn3)ccn2)cc1', '%', 0),
  ('COc1cc2ncn(-c3cc(OCC4CCCO4)c(C(N)=O)s3)c2cc1OC (stereo not shown)', '%', 0),
  ('COc1cccc(NC(=O)NC2CCN(c3ccnc(Nc4ccc(F)cc4)n3)C2)c1 (stereo not shown)', '%', 0),
  ('COc1ccccc1-c1ccc2c(NC(=O)C3CC3)n[nH]c2n1', '%', 0),
  ('Cl.O=C(Nc1cccc(-c2nn3ncccc3c2-c2ccnc(Nc3cccnc3)n2)c1)c1c(F)cccc1F', '%', 52),
  ('CSc1nn2c(=O)cc(N3CCOCC3)nc2n1Cc1cccc(C(F)(F)F)c1C', '%', 0);
